- assay-system: KDR (human, UniProt P35968 20-1356)
- Sequence (P35968 20-1356): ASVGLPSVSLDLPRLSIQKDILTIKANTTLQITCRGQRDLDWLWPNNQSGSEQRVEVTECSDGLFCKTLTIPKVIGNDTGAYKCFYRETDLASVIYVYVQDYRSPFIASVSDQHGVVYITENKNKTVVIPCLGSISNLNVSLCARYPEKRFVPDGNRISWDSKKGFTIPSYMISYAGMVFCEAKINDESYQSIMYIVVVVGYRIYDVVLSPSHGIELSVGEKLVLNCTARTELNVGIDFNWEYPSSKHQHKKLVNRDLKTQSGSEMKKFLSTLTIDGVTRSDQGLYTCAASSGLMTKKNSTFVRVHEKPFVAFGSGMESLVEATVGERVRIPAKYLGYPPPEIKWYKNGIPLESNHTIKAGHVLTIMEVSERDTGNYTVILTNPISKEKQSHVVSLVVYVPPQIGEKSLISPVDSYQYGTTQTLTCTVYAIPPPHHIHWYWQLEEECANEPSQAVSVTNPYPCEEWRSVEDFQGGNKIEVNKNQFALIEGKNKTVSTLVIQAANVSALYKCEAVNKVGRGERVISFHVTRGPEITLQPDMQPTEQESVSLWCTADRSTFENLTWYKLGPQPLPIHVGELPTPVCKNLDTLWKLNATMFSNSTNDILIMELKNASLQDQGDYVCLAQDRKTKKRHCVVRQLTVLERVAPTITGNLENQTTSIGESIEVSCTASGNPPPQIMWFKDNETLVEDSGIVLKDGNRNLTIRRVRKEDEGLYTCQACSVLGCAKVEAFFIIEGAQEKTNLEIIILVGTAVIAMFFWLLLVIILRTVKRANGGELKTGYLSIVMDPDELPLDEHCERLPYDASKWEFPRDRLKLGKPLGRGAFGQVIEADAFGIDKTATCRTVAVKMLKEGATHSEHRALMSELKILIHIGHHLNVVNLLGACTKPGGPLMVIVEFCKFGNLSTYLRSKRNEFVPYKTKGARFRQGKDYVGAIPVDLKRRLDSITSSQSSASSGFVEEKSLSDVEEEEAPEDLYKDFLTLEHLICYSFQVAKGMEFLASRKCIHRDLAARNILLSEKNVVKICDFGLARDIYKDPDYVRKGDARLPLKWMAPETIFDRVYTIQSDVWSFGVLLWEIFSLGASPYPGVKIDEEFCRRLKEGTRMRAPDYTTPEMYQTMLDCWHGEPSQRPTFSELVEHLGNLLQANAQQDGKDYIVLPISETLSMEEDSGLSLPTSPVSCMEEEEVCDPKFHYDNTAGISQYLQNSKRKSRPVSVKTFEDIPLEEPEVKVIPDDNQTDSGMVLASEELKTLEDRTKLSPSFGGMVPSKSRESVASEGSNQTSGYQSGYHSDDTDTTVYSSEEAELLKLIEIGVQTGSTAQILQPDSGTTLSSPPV
- test-details: cell-based or functional assay
Entries and their % of Max VEGF KDR pTyr Activity (at 133 nM antibody concentration), N = 1
Value expressed in %; do not type the unit.

# binder, result
data = [
    ("30D7 (antibody, V domains shown) VH: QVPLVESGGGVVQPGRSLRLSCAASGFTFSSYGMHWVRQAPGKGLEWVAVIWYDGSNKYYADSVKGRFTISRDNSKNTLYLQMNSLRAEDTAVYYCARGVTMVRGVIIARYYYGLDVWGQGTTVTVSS VL: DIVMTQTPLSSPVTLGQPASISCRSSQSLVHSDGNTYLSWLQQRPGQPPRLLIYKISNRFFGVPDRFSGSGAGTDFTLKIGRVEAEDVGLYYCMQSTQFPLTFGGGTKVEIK", 12),
    ("30F6 (antibody, V domains shown) VH: QVQLVESGGGVVQPGRSLRLSCAASGFTFSTYGMHWVRQAPGKGLEWVAVIWYDGSNKYYADSVKGRFTISRDNSKNTLYLQMNSLRAEDTAVYYCACSYWNDDYYYGMDVWGQGTTVTVSS VL: DIQMTQSPSSLSASVGDRVIITCRASQNISSYLIWYQQKPGKAPNLLIHTTSSLQRGVPSRFSGSGSGTDFTLTISSLQPEDFATYYCQQSYSAPLTFGGGTKVEIK", 14),
    ("29F7 (antibody, V domains shown) VH: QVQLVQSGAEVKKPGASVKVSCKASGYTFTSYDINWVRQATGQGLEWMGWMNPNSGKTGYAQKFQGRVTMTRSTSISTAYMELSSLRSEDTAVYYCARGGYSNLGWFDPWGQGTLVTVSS VL: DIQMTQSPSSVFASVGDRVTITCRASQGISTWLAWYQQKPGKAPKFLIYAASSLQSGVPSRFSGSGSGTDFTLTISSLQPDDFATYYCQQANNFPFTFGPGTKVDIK", 19),
    ("31E11 (antibody, V domains shown) VH: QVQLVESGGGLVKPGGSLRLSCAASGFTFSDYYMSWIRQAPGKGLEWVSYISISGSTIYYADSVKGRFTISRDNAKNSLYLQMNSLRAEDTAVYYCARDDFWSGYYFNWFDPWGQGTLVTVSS VL: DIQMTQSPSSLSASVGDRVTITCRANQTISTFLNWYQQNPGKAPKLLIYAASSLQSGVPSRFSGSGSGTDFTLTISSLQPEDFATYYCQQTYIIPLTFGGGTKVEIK", 4),
    ("1G6 (antibody, V domains shown) VH: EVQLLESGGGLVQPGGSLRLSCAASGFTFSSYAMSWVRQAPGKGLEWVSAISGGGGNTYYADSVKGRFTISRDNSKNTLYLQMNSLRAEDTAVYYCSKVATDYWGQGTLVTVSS VL: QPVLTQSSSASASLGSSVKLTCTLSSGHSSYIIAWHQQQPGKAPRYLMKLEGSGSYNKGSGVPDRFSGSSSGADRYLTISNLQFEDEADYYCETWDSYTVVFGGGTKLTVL", 17),
    ("33E1 (antibody, V domains shown) VH: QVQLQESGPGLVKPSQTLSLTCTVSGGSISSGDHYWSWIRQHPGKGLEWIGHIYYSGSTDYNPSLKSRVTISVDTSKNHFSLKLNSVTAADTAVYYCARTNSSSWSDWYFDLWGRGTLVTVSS VL: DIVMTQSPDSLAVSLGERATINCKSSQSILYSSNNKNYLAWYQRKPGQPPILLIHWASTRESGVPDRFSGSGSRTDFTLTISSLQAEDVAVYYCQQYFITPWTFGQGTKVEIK", 5),
    ("29A3 (antibody, V domains shown) VH: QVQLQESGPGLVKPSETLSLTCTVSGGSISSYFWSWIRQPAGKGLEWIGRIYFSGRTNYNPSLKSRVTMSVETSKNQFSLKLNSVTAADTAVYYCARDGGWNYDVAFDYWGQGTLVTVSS VL: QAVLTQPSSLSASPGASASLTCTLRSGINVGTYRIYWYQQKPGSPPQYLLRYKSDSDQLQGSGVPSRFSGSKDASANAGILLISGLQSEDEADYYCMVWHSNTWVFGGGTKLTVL", 15),
    ("33D5 (antibody, V domains shown) VH: QVQLVQSGAEVKKPGASVKVSCKASGYTFGSYDINWVRQATGQGLEWMGWMNPNSGNTGYAQKFQGRVTLTRNTSIRTVYMELSSLRSEDTAVYYCARGGYSNLGWFDPWGQGSLVTVSS VL: DIQMTQSPSSVSVSVGDRVTITCRASQGISSWLAWYQQKPGKAPKLLIYAASSLQSGVPSRFSGSGSGTDFTLTISSLQPEDFATYYCQQANSFPFTFGPGTKVDIK", 20),
]

Name the recorded % of Max VEGF KDR pTyr Activity (at 133 nM antibody concentration), N = 1 for 21H9 (antibody, V domains shown) VH: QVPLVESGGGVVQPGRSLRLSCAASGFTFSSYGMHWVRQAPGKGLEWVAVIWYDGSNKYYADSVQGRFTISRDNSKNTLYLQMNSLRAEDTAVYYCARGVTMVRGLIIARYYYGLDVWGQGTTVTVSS VL: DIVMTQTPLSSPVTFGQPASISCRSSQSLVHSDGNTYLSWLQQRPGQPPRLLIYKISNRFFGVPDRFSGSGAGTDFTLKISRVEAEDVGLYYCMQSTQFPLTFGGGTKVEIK .
16

Also, 33C3 (antibody, V domains shown) VH: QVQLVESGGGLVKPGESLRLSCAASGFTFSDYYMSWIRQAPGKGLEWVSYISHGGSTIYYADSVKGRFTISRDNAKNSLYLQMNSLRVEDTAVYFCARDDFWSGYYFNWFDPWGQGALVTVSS VL: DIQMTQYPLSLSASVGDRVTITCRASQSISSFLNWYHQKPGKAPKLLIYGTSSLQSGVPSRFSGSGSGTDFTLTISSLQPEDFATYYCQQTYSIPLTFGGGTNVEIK please.
6
